tested on: velvetleaf (Abutilon theophrasti); assay: Test B pre/postemergence; type: in vivo; conditions: Postemergence, 125 g ai/ha; scale 0 to 100 (0 no effect, 100 complete control)
property name: Velvetleaf plant response rating
When you answer, write just the number.

Example compounds with recorded Velvetleaf plant response rating:
1) CC=NNc1nc(C2CC2)nc(C(=O)OC)c1Br	20
2) CCOC(=O)Cc1nc(C2CC2)nc(N)c1Br	20
3) CNN=Cc1nc(C2CC2)nc(N)c1Br	50

In: Need Velvetleaf plant response rating, item `CCOC(=O)c1nc(C2CC2)nc(N2CCCC2)c1Br`
Out: 0

In: Need Velvetleaf plant response rating, item `COC(=O)c1nc(-c2ccc(C(F)(F)F)cc2)nc(N)c1Cl`
Out: 80

In: Need Velvetleaf plant response rating, item `CCOC(=O)Cc1nc(-c2ccc(Cl)cc2)nc(N)c1Br`
Out: 50

In: Need Velvetleaf plant response rating, item `CON=Cc1nc(C2CC2)nc(N)c1Br`
Out: 10

In: Need Velvetleaf plant response rating, item `CCCCOC(=O)c1nc(C2CC2)nc(N)c1Cl`
Out: 90

In: Need Velvetleaf plant response rating, item `CCOC(=O)c1nc(C2CC2)nc(NNC(C)=O)c1Br`
Out: 10

----------
system: velvetleaf (Abutilon theophrasti); test: Test A pre/postemergence; assay type: in vivo; conditions: Postemergence, 500 g ai/ha; 0 to 100 scale (0 no effect, 100 complete control)
property name: Plant response rating, Velvetleaf

1. CCOC(=O)c1nc(-c2ccc(C)cc2)nc(N)c1Cl	95
2. COC(=O)c1nc(-c2ccc(C)cc2)nc(N)c1Cl	90
3. CC(C)c1nc(N)c(Cl)c(C(=O)[O-])n1.[Na+]	80
4. COC(=O)COc1nc(C2CC2)nc(N)c1Cl	35
5. COC(=O)c1nc(-c2ccc(S(C)(=O)=O)cc2)nc(N)c1Cl	0

In: Need Plant response rating, Velvetleaf, item `CC(C)N.Nc1nc(C2CC2)nc(C(=O)O)c1Cl`
Out: 100

In: Need Plant response rating, Velvetleaf, item `Nc1nc(-c2ccc(Br)cc2)nc(C(=O)O)c1Br`
Out: 95

In: Need Plant response rating, Velvetleaf, item `Nc1nc(C2CC2)nc(C(=O)O)c1Cl`
Out: 100

In: Need Plant response rating, Velvetleaf, item `COCCOCCOC(=O)c1nc(C2CC2)nc(N)c1Cl`
Out: 100

In: Need Plant response rating, Velvetleaf, item `CCOC(=O)c1nc(-c2ccc(Cl)c(Cl)c2)nc(N)c1Cl`
Out: 75

----------
Recorded Plant response rating (scale of 0 to 100), Lambsquarters by entry
test system: lambsquarters (Chenopodium album); experiment: Test C pre/postemergence; assay type: in vivo; settings: Postemergence, 31 g ai/ha
When you answer, write just the number.

Example compounds with recorded Plant response rating (scale of 0 to 100), Lambsquarters:
1. COC(=O)c1nc(C2CC2)nc(N=CN(C)C)c1Br [Compound 19]	90
2. COCc1nc(C2CC2)nc(N)c1Br [Compound 11]	60
3. Nc1nc(-c2ccc(Br)cc2)nc(C(=O)O)c1Br [Compound 136]	95
4. CCOC(=O)c1nc(-c2ccc(I)cc2)nc(N)c1Cl [Compound 133]	95

Proceeding to the next compound to report its Plant response rating (scale of 0 to 100), Lambsquarters.
In: Need Plant response rating (scale of 0 to 100), Lambsquarters, item Nc1nc(-c2ccc(Cl)cc2)nc(C(=O)O)c1Br [Compound 88]
Out: 90
